Target: ClpC1 NTD protein (M. tuberculosis) (Mycobacterium tuberculosis)
Sequence (P9WPC9 1-156, looked up, natural form): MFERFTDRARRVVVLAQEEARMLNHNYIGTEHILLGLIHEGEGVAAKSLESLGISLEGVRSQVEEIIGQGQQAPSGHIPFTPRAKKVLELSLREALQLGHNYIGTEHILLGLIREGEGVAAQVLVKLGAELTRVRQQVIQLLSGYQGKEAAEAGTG
Assay: biochemical
Format: binding
Conditions: SPR, single independent measurements
Where a SMILES comes first, the peptide text is derived from it. [ ]: non-standard residue; d: D form. NMeTrp(1-Me) = CN[C@@H](Cc1cn(C)c2ccccc12)C(=O)O; NMeLeu(5-OH,4R) = CN[C@@H](C[C@@H](C)CO)C(=O)O; Phe(βR-OMe) = CO[C@H](c1ccccc1)[C@H](N)C(=O)O; NMeL = CN[C@@H](CC(C)C)C(=O)O
Entries and their koff ClpC1-NTD
endpoint-label: koff ClpC1-NTD

CO[C@H](c1ccccc1)[C@@H]1NC(=O)[C@H](C)NC(=O)[C@H](C[C@@H](C)CO)N(C)C(=O)[C@H](Cc2cn(C)c3ccccc23)N(C)C(=O)[C@H](CCC(=O)N(C)C)NC(=O)[C@H](CC(C)C)N(C)C(=O)[C@H](C(C)C)NC1=O [SI-76] (cyclo(A[Phe(βR-OMe)]V[NMeL]E(NMe2)[NMeTrp(1-Me)][NMeLeu(5-OH,4R)]))    6E-2 6E-2 1/s
CO[C@H](c1ccccc1)[C@@H]1NC(=O)[C@H](C)NC(=O)[C@H](C[C@@H](C)CO)N(C)C(=O)[C@H](Cc2cn(C)c3ccccc23)N(C)C(=O)[C@H](Cc2cn(CCCCCn3cc(C[C@@H]4NC(=O)[C@H](CC(C)C)N(C)C(=O)[C@H](C(C)C)NC(=O)[C@H]([C@H](OC)c5ccccc5)NC(=O)[C@H](C)NC(=O)[C@H](C[C@@H](C)CO)N(C)C(=O)[C@H](Cc5cn(C)c6ccccc56)N(C)C4=O)nn3)nn2)NC(=O)[C@H](CC(C)C)N(C)C(=O)[C@H](C(C)C)NC1=O [Compound 22]    0.01 s⁻¹
CO[C@H](c1ccccc1)[C@@H]1NC(=O)[C@H](C)NC(=O)[C@H](C[C@@H](C)CO)N(C)C(=O)[C@H](Cc2cn(Cc3cn(CCOCCOCCOCCOCCn4cc(Cn5cc(C[C@H]6C(=O)N(C)[C@@H](C[C@@H](C)CO)C(=O)N[C@@H](C)C(=O)N[C@@H]([C@H](OC)c7ccccc7)C(=O)N[C@@H](C(C)C)C(=O)N(C)[C@@H](CC(C)C)C(=O)N[C@@H](C(C)C)C(=O)N6C)c6ccccc65)nn4)nn3)c3ccccc23)N(C)C(=O)[C@H](C(C)C)NC(=O)[C@H](CC(C)C)N(C)C(=O)[C@H](C(C)C)NC1=O [Compound 27]    2E-3 2E-3 1/s

###

Experiment: in vitro
Conditions: human, Caco-2
*1 amine or outer side, *2 acyl side, *3 side chain or, on linkers, in order; H or OH if unused. Where a SMILES comes first, the peptide text is derived from it. [ ]: non-standard residue; d: D form. ξ: configuration not given here. Trp(1-(1,1-Me2-allyl)) = C=CC(C)(C)n1cc(C[C@H](N)C(=O)O)c2ccccc21; Ala(3R-Me,3-isobutenyl) = CC(C)=C[C@@H](C)[C@H](N)C(=O)O; X3 = C#CCOc1ccc([C@@H](OC)[C@H](N[*:1])C(=O)[*:2])cc1; X5 = C=CCn1cc(C[C@@H](C(=O)[*:2])N(C)[*:1])c2ccccc21; NMeTrp(1-Me) = CN[C@@H](Cc1cn(C)c2ccccc12)C(=O)O; NMeLeu(5-OH,4R) = CN[C@@H](C[C@@H](C)CO)C(=O)O; Phe(βR-OMe) = CO[C@H](c1ccccc1)[C@H](N)C(=O)O; ξNMeTrp(1-Me) = CNC(Cc1cn(C)c2ccccc12)C(=O)O; X8 = CC(CO)C[C@@H](C(=O)[*:2])N(C)[*:1]; NMeL = CN[C@@H](CC(C)C)C(=O)O; ξV = CC(C)C(N)C(=O)O
Just a reminder that ties go to no: only efflux ratio strictly below 8 counts as yes.

CCCCCn1cc(C[C@@H]2NC(=O)[C@H](CC(C)C)N(C)C(=O)[C@H](C(C)C)NC(=O)[C@H]([C@H](OC)c3ccccc3)NC(=O)[C@H](C)NC(=O)[C@H](C[C@@H](C)CO)N(C)C(=O)[C@H](Cc3cn(C)c4ccccc34)N(C)C2=O)nn1    no
C=CC(C)(C)n1cc(C[C@@H]2NC(=O)[C@H]([C@H](C)C=C(C)C)NC(=O)[C@H](CC(C)C)N(C)C(=O)[C@H](C(C)C)NC(=O)[C@H]([C@H](OC)c3ccccc3)NC(=O)[C@H](C)NC(=O)[C@H](C[C@@H](C)CO)N(C)C2=O)c2ccccc21 [dCymC] (cyclo([Trp(1-(1,1-Me2-allyl))][NMeLeu(5-OH,4R)]A[Phe(βR-OMe)]V[NMeL][Ala(3R-Me,3-isobutenyl)]))    yes
CO[C@H](c1ccccc1)[C@@H]1NC(=O)[C@H](C)NC(=O)[C@H](C[C@@H](C)CO)N(C)C(=O)[C@H](Cc2cn(C)c3ccccc23)N(C)C(=O)[C@H](CCC(=O)N(C)C)NC(=O)[C@H](CC(C)C)N(C)C(=O)[C@H](C(C)C)NC1=O [SI-76] (cyclo(A[Phe(βR-OMe)]V[NMeL]E(NMe2)[NMeTrp(1-Me)][NMeLeu(5-OH,4R)]))    no
C#CCOc1ccc([C@@H](OC)[C@@H]2NC(=O)[C@@H](C)NC(=O)[C@H](CC(C)CO)N(C)C(=O)C(Cc3cn(C)c4ccccc34)N(C)C(=O)C(C(C)C)NC(=O)[C@H](CC(C)C)N(C)C(=O)[C@@H](C(C)C)NC2=O)cc1 (stereo partly drawn) [SI-64] (cyclo([NMeL][ξV][ξNMeTrp(1-Me)][X8][dA][X3][dV]))    yes
C=CCn1cc(C[C@H]2C(=O)N(C)[C@@H](C[C@@H](C)CO)C(=O)N[C@@H](C)C(=O)N[C@@H]([C@H](OC)c3ccccc3)C(=O)N[C@@H](C(C)C)C(=O)N(C)[C@@H](CC(C)C)C(=O)N[C@@H](C(C)C)C(=O)N2C)c2ccccc21 [SI-60] (cyclo(A[Phe(βR-OMe)]V[NMeL]V[X5][NMeLeu(5-OH,4R)]))    yes

###

Each entry below carries its reported Microsomal Stability Human QH.
Assay: Microsomal stability, human
Assay type: in vitro ADME
Conditions: Human
Description: The kinetics of compound degradation in liver microsomes is assessed in an assay with 1 µmol/l of compound and 0.5 mg/ml liver microsomes in a medium of 100 mM Tris-HCl pH 7.5, 6.5 mM MgCl2 and 1 mM NADPH at 37 °C. The reaction is stopped at multiple time points by adding acetonitrile. After centrifugation, the compound concentration is measured in the supernatants by high-performance liquid chromatography (HPLC) tandem mass spectrometry (MS/MS). […]
Where a SMILES comes first, the peptide text is derived from it. [ ]: non-standard residue; d: D form. NMeTrp(1-Me) = CN[C@@H](Cc1cn(C)c2ccccc12)C(=O)O; NMeLeu(5-OH,4R) = CN[C@@H](C[C@@H](C)CO)C(=O)O; Phe(βR-OMe) = CO[C@H](c1ccccc1)[C@H](N)C(=O)O; NMeL = CN[C@@H](CC(C)C)C(=O)O; Pra = C#CC[C@H](N)C(=O)O
endpoint-label: Microsomal Stability Human QH

CO[C@H](c1ccccc1)[C@@H]1NC(=O)[C@H](C)NC(=O)[C@H](C[C@@H](C)CO)N(C)C(=O)[C@H](Cc2cn(C)c3ccccc23)NC(=O)[C@H](Cc2cn(CCOCCOCCn3cc(C[C@@H]4NC(=O)[C@H](CC(C)C)N(C)C(=O)[C@H](C(C)C)NC(=O)[C@H]([C@H](OC)c5ccccc5)NC(=O)[C@H](C)NC(=O)[C@H](C[C@@H](C)CO)N(C)C(=O)[C@H](Cc5cn(C)c6ccccc56)NC4=O)nn3)nn2)NC(=O)[C@H](CC(C)C)N(C)C(=O)[C@H](C(C)C)NC1=O    <24.4%
C#CC[C@@H]1NC(=O)[C@H](CC(C)C)N(C)C(=O)[C@H](C(C)C)NC(=O)[C@H]([C@H](OC)c2ccccc2)NC(=O)[C@H](C)NC(=O)[C@H](C[C@@H](C)CO)N(C)C(=O)[C@H](Cc2cn(C)c3ccccc23)N(C)C1=O [Compound 20] (cyclo(A[Phe(βR-OMe)]V[NMeL][Pra][NMeTrp(1-Me)][NMeLeu(5-OH,4R)]))    >88.400%
CCCCCn1cc(C[C@@H]2NC(=O)[C@H](CC(C)C)N(C)C(=O)[C@H](C(C)C)NC(=O)[C@H]([C@H](OC)c3ccccc3)NC(=O)[C@H](C)NC(=O)[C@H](C[C@@H](C)CO)N(C)C(=O)[C@H](Cc3cn(C)c4ccccc34)N(C)C2=O)nn1    >88.4 >88.4%
